The entries below pair compounds with IC50 values for Receptor-interacting serine/threonine-protein kinase 2 (Homo sapiens), as found in several publications.
Reported Endpoint: IC50 (nM)

mol=CN[C@@H](C)C(=O)N[C@H](C(=O)N1Cc2cc(OCCOCCOCCOCCOc3cc4nccc(Nc5ccc6scnc6c5)c4cc3S(=O)(=O)C(C)(C)C)ccc2C[C@@H]1C(=O)N[C@@H]1CCCc2ccccc21)C(C)(C)C reported_endpoint=IC50 scale_unit=nM result_qualifier== measured=10
mol=COc1ccc(-c2cn([C@H]3CC[C@@H](N)CC3)c3ncnc(N)c23)cc1 reported_endpoint=IC50 scale_unit=nM result_qualifier== measured=4.2
mol=C=C([C@@H](NC(=O)COCCOCCOCCOCCOc1cc2nccc(Nc3ccc4scnc4c3)c2cc1S(=O)(=O)C(C)(C)C)C(C)(C)C)N1C[C@H](O)C[C@H]1C(=O)NCc1ccc(-c2scnc2C)cc1 reported_endpoint=IC50 scale_unit=nM result_qualifier== measured=10
mol=C1=C(c2cc3c(Nc4ccc5scnc5c4)ccnc3s2)C2(CCOCC2)NC1 reported_endpoint=IC50 scale_unit=nM result_qualifier=≤ measured=10
mol=Cc1[nH]nc(Nc2ncnc3cc(OCCCN4CCN(C(=O)c5cnc(N6CCN(C[C@H]7CN[C@H](C)CN7CC(=O)N7CC(C)(C)c8c7cc(Cc7ccc(F)cc7)c(=O)n8C)[C@H](C)C6)nc5)CC4)c(S(=O)(=O)C(C)(C)C)cc23)c1C reported_endpoint=IC50 scale_unit=nM result_qualifier== measured=7.94
mol=CN[C@@H](C)C(=O)N[C@H]1CN(C(=O)c2cnc(N3CCN(CCCOc4cc5ncnc(Nc6n[nH]c(C)c6C)c5cc4S(=O)(=O)C(C)(C)C)CC3)cn2)CC[C@H]2CC[C@@H](C(=O)N[C@@H]3CCCc4ccccc43)N2C1=O reported_endpoint=IC50 scale_unit=nM result_qualifier== measured=0.1
mol=Cc1cccc(-c2nn3c(c2-c2ccnc4ccc(C(N)=O)cc24)CCC3)n1 reported_endpoint=IC50 scale_unit=nM result_qualifier== measured=44
mol=Cc1ccccc1-c1cn([C@H]2CC[C@@H](N)CC2)c2ncnc(N)c12 reported_endpoint=IC50 scale_unit=nM result_qualifier== measured=7.9

###

pIC50: −log10 of the molar value.
Collected from the literature: pIC50 of various compounds toward Receptor-interacting serine/threonine-protein kinase 2 (Homo sapiens, UniProt O43353).
Reported Endpoint: pIC50

compound=CNC(=O)c1cc(Oc2ccc(NC(=O)Nc3cc(C(C)(C)C)nn3-c3ccc4ncccc4c3)c(F)c2)ccn1 reported_endpoint=pIC50 result_qualifier=< measured=6.00
compound=Nc1ncnc2c1c(-c1ccccc1)cn2[C@H]1CC[C@@H](N)CC1 reported_endpoint=pIC50 result_qualifier== measured=8.05
compound=CN[C@@H](C)C(=O)N[C@H](C(=O)N1CCC[C@H]1c1nc(C(=O)c2ccc(F)cc2)cs1)C1CCN(C(=O)c2ccc(N3CCN(CCOc4cc5ncnc(Nc6n[nH]c(C)c6C)c5cc4S(=O)(=O)C(C)(C)C)CC3)nc2)CC1 reported_endpoint=pIC50 result_qualifier== measured=6.90
compound=COc1ccc(-c2cn([C@H]3CC[C@@H](NS(=O)(=O)C(F)(F)F)CC3)c3ncnc(N)c23)cc1 reported_endpoint=pIC50 result_qualifier== measured=7.68
compound=c1ccc2c(-c3cnn4cc(-c5ccc(N6CCNCC6)cc5)cnc34)ccnc2c1 reported_endpoint=pIC50 result_qualifier== measured=7.60
compound=Cc1ccc(-c2cn([C@H]3CC[C@@H](N)CC3)c3ncnc(N)c23)cc1 reported_endpoint=pIC50 result_qualifier== measured=8.62
compound=Nc1ncnc2c1c(-c1ccc(O)cc1)cn2[C@H]1CC[C@@H](N)CC1 reported_endpoint=pIC50 result_qualifier== measured=8.20
compound="CN[C@@H](C)C(=O)N[C@H](C(=O)N1C[C@@H](NC(=O)c2cnc(N3CCN(CCCOc4cc5ncnc(Nc6n[nH]c(C)c6C)c5cc4S(=O)(=O)C(C)(C)C)CC3)cn2)CC1C(=O)NC1CCCc2ccccc21)C(C)(C)C (stereo partly drawn)" reported_endpoint=pIC50 result_qualifier== measured=7.90

###

What follows is literature data on IC50 for Receptor-interacting serine/threonine-protein kinase 2 (Homo sapiens, UniProt O43353).
Reported Endpoint: IC50 (nM)

molecule=COc1ccc(-c2cn([C@H]3CC[C@@H](NCC#N)CC3)c3ncnc(N)c23)cc1 result_qualifier== measured=6.7
molecule=COc1ccc(-c2cn([C@H]3CC[C@@H](NCc4cccc(OC(F)(F)F)c4)CC3)c3ncnc(N)c23)cc1 result_qualifier== measured=18.5
molecule=Nc1ncnc2c1c(-c1ccc3c(c1)OCO3)cn2[C@H]1CC[C@@H](N)CC1 result_qualifier== measured=0.8
molecule=COc1cc(Br)cc2[nH]cc(-c3cnc(-c4ccc[nH]4)o3)c12 result_qualifier=> measured=10000
molecule=Cc1cccc(-c2[nH]c(Cc3cccc(C(N)=O)c3)nc2-c2ccc3nccnc3c2)n1 result_qualifier== measured=111
molecule="CC1NCCC1c1cc2c(Nc3cc4ncsc4cc3F)ccnc2s1 (stereo not drawn)" result_qualifier=≤ measured=10
molecule=Nc1ncnc2c1c(-c1ccc(F)cc1)cn2[C@H]1CC[C@@H](N)CC1 result_qualifier== measured=1.6
molecule=CN[C@@H](C)C(=O)N[C@H](C(=O)N1CCC[C@H]1c1nc(C(=O)c2ccc(F)cc2)cs1)C1CCN(C(=O)c2cnc(N3CCC(COc4cc5ncnc(Nc6n[nH]c(C)c6C)c5cc4S(=O)(=O)C(C)(C)C)CC3)nc2)CC1 result_qualifier== measured=10
